Reported pIC50 values for the following molecules.
- EXPERIMENTAL SYSTEM: human ETB receptor (Homo sapiens)
- Sequence (P24530 27-442): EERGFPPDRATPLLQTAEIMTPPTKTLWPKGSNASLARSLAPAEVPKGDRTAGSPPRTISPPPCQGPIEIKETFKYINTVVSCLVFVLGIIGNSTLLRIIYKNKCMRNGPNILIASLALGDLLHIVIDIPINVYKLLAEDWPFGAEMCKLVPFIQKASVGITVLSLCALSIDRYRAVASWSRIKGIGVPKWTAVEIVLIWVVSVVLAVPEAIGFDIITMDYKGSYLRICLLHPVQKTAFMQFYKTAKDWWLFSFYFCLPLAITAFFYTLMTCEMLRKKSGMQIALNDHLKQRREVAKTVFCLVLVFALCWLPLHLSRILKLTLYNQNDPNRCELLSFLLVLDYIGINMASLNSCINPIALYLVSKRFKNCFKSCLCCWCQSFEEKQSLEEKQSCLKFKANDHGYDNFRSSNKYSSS
- ASSAY NOTES: In vitro antagonistic effect against human ETB receptor, Ca2+ signal in transfected CHO cells
- TEST PARAMETERS: response to 0.3 nM endothelin-1
Units for pIC50: none; it is -log10 of a concentration expressed in mol/L.

Past entries and their recorded results:
{"columns": ["MOLECULE", "TEST RESULT"],
 "data": [
  ["CCCCNS(=O)(=O)Nc1ncnc(OCCOc2ncc(Br)cn2)c1-c1ccc2scnc2c1", 4.68],
  ["COCCCNS(=O)(=O)Nc1ncnc(OCCOc2ncc(Br)cn2)c1-c1ccc2scnc2c1", 4.46],
  ["CCCNS(=O)(=O)Nc1ncnc(OCCOc2ncc(Br)cn2)c1-c1ccc2ccnn2c1", 4.21],
  ["COCCNS(=O)(=O)Nc1ncnc(OCCOc2ncc(Br)cn2)c1-c1ccc2c(c1)OCC2", 4.48],
  ["O=S(=O)(NCC1CCCO1)Nc1ncnc(OCCOc2ncc(Br)cn2)c1-c1ccc2c(c1)OCO2 (single isomer, unassigned) [WX023]", 4.82]
]}

query: Name the recorded pIC50 for CCCCNS(=O)(=O)Nc1ncnc(OCCOc2ncc(Br)cn2)c1-c1ccc2ccnn2c1 .
result: 4.14

query: Name the recorded pIC50 for COCCNS(=O)(=O)Nc1ncnc(OCCOc2ncc(Br)cn2)c1-c1ccc2c(c1)OCO2 .
result: 4.18

query: Name the recorded pIC50 for CCCNS(=O)(=O)Nc1ncnc(OCCOc2ncc(Br)cn2)c1-c1ccc2c(c1)OCC2 .
result: 4.80

* * *

- EXPERIMENTAL SYSTEM: CYP1A2 (Homo sapiens)
- Sequence (P05177 whole entry): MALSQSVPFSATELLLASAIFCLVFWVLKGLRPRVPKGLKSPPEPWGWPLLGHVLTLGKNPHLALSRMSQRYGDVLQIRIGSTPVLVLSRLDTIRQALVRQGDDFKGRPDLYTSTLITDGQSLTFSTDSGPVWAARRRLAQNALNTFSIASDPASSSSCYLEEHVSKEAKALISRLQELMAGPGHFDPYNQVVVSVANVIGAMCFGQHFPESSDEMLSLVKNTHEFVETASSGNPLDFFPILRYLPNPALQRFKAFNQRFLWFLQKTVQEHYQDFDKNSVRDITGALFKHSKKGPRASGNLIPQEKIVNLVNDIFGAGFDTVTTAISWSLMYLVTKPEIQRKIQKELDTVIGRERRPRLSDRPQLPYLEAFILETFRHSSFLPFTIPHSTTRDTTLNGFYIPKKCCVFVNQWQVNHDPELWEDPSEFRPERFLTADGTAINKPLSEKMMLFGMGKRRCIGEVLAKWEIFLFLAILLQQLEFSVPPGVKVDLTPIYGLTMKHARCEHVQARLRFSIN
Reported IC50 values for the following compounds.
Enter your answer as a number in µM; do not include the unit.

{"columns": ["COMPOUND", "TEST RESULT"],
 "data": [
  ["CCCNS(=O)(=O)Nc1ncnc(OCCOc2ncc(Br)cn2)c1-c1ccc(Br)cc1 [macitentan, reference compound]", 37]
]}

# input for lookup
query: Quick check: IC50 on CYP1A2 (Homo sapiens), item COCCNS(=O)(=O)Nc1ncnc(OCCOc2ncc(Br)cn2)c1-c1ccc2c(c1)OCO2 ?
result: 47

* * *

- ASSAY NOTES: Pharmacokinetics in beagle dogs
- Assay type: in vivo
- TEST PARAMETERS: male, dog, plasma, intravenous injection 1 mg/kg
REPORTED METRIC: half-life

{"columns": ["COMPOUND STRING", "half-life"],
 "data": [
  ["COCCNS(=O)(=O)Nc1ncnc(OCCOc2ncc(Br)cn2)c1-c1ccc2c(c1)OCO2", "0.86 h"]
]}

# input for lookup
query: Name the recorded half-life for NS(=O)(=O)Nc1ncnc(OCCOc2ncc(Br)cn2)c1-c1ccc2c(c1)OCO2 .
result: 2.31 h

* * *

- EXPERIMENTAL SYSTEM: human ETB receptor (Homo sapiens)
- ASSAY NOTES: In vitro antagonistic effect against human ETB receptor, Ca2+ signal in transfected CHO cells
- TEST PARAMETERS: response to 0.3 nM endothelin-1
Reported pIC50 values for the following compounds.
Units for pIC50: none; it is -log10 of a concentration expressed in mol/L.

{"columns": ["COMPOUND", "TEST RESULT"],
 "data": [
  ["CCNS(=O)(=O)Nc1ncnc(OCCOc2ncc(Br)cn2)c1-c1ccc2c(c1)OCO2", 4.15],
  ["O=S(=O)(NCC(F)(F)F)Nc1ncnc(OCCOc2ncc(Br)cn2)c1-c1ccc2c(c1)OCO2", 4.21],
  ["CCCNS(=O)(=O)Nc1ncnc(OCCOc2ncc(Br)cn2)c1-c1ccc2c(c1)OCO2", 3.55],
  ["CCCOCCNS(=O)(=O)Nc1ncnc(OCCOc2ncc(Br)cn2)c1-c1ccc2c(c1)OCO2", 4.66],
  ["CS(=O)(=O)CCNS(=O)(=O)Nc1ncnc(OCCOc2ncc(Br)cn2)c1-c1ccc2c(c1)OCO2", 4.12],
  ["O=S(=O)(NCC1CCC1)Nc1ncnc(OCCOc2ncc(Br)cn2)c1-c1ccc2c(c1)OCO2", 4.77],
  ["O=S(=O)(NCC(F)(F)F)Nc1ncnc(OCCOc2ncc(Br)cn2)c1-c1ccc2scnc2c1", 4.15],
  ["O=S(=O)(NCC1CC1)Nc1ncnc(OCCOc2ncc(Br)cn2)c1-c1ccc2scnc2c1", 3.96]
]}

query: Name the recorded pIC50 for NS(=O)(=O)Nc1ncnc(OCCOc2ncc(Br)cn2)c1-c1ccc2c(c1)OCO2 .
result: 4.07

query: Name the recorded pIC50 for O=S(=O)(NCC1CC1)Nc1ncnc(OCCOc2ncc(Br)cn2)c1-c1ccc2ccnn2c1 .
result: 4.17

query: Name the recorded pIC50 for COCCNS(=O)(=O)Nc1ncnc(OCCOc2ncc(Br)cn2)c1-c1ccc2c(c1)CCO2 .
result: 3.70

query: Name the recorded pIC50 for O=S(=O)(NCC1CCCO1)Nc1ncnc(OCCOc2ncc(Br)cn2)c1-c1ccc2c(c1)OCO2 (single isomer, unassigned) [WX024] .
result: 5.17

* * *

Reported pEC50 values for the following compounds.
- EXPERIMENTAL SYSTEM: Human Pregnane X Receptor (PXR) (Homo sapiens, UniProt O75469)
- Construct: host or cells: DPX2 cells
- Sequence (O75469 1-434): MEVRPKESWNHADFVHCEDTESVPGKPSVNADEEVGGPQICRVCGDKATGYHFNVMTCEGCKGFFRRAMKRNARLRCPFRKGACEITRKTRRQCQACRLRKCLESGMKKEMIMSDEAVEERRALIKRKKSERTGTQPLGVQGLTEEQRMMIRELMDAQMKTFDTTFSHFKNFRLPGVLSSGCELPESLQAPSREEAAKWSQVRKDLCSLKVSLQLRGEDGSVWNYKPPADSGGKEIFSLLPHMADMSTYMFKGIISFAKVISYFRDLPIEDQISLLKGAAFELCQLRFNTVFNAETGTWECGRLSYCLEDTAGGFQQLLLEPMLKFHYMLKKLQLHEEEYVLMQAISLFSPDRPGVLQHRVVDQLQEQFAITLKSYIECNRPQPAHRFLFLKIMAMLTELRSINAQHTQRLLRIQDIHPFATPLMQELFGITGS
- ASSAY NOTES: Human pregnane X receptor (PXR) assay, induction of PXR-mediated CYP3A expression in DPX2 cells
- Assay type: cell-based
- TEST PARAMETERS: DPX2 cells, 24 hours exposure; ± is calculation error of simulation curve; read-out: EC50, induction effect on PXR-mediated CYP3A expression
Units for pEC50: none; it is -log10 of a concentration expressed in mol/L.

{"columns": ["COMPOUND", "REPORTED METRIC", "TEST RESULT"],
 "data": [
  ["CCCNS(=O)(=O)Nc1ncnc(OCCOc2ncc(Br)cn2)c1-c1ccc(Br)cc1 [macitentan, reference compound]", "pEC50", 5.20]
]}

# input for lookup
query: Quick check: pEC50 on Human Pregnane X Receptor (PXR) (Homo sapiens, UniProt O75469), item COCCNS(=O)(=O)Nc1ncnc(OCCOc2ncc(Br)cn2)c1-c1ccc2c(c1)OCO2 ?
result: 4.56

* * *

- EXPERIMENTAL SYSTEM: human ETA receptor (Homo sapiens, UniProt P25101)
- Construct: endogenously expressed human ETA receptors in SK-N-MC cells
- Sequence (P25101 21-427): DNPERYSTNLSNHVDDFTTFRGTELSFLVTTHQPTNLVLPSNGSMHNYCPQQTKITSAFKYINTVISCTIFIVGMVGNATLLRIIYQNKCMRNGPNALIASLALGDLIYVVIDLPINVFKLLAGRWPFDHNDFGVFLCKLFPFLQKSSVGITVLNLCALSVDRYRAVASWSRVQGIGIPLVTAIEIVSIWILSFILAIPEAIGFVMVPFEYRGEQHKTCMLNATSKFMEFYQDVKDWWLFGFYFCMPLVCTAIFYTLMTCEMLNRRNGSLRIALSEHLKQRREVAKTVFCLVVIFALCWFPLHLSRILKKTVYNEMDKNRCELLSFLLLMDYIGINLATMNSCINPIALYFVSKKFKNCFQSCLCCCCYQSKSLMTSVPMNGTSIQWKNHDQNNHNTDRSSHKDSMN
- ASSAY NOTES: In vitro antagonistic effect against human ETA receptor, Ca2+ signal in SK-N-MC cells
- TEST PARAMETERS: SK-N-MC cells, response to 1 nM endothelin-1
REPORTED METRIC: IC50

{"columns": ["MOLECULE", "IC50"],
 "data": [
  ["O=S(=O)(NCC1CCCO1)Nc1ncnc(OCCOc2ncc(Br)cn2)c1-c1ccc2c(c1)OCO2 (single isomer, unassigned) [WX023]", "0.32 nM"],
  ["CCCCNS(=O)(=O)Nc1ncnc(OCCOc2ncc(Br)cn2)c1-c1ccc2c(c1)OCO2", "0.17 nM"],
  ["O=S(=O)(Nc1ncnc(OCCOc2ncc(Br)cn2)c1-c1ccc2c(c1)OCC2)N1C[C@H]2C[C@H]2C1", "1.1 nM"],
  ["COCCNS(=O)(=O)Nc1ncnc(OCCOc2ncc(Br)cn2)c1-c1ccc2c(c1)OCC2", "1.3 nM"],
  ["O=S(=O)(NCC(F)(F)F)Nc1ncnc(OCCOc2ncc(Br)cn2)c1-c1ccc2c(c1)OCO2", "1.5 nM"]
]}

query: Name the recorded IC50 for O=S(=O)(NCC1CC1)Nc1ncnc(OCCOc2ncc(Br)cn2)c1-c1ccc2c(c1)OCO2 .
result: 1.3 nM

query: Name the recorded IC50 for COCCCNS(=O)(=O)Nc1ncnc(OCCOc2ncc(Br)cn2)c1-c1ccc2c(c1)OCO2 .
result: 0.45 nM

query: Name the recorded IC50 for CCCNS(=O)(=O)Nc1ncnc(OCCOc2ncc(Br)cn2)c1-c1ccc2ccnn2c1 .
result: 3.1 nM

Values compiled from patent US11319305B2.
